Tested on: primary cultures of retinal pigment epithelium (RPE) of adult pigs
Assay: In vitro assay of the photoprotective activity: phototoxicity induced by A2E and blue light, cell survival
Type: cell-based, pig
Details: 20 μM compound for 48 h, A2E 30 μM, blue light 470 nm 50 min, survival after 24 h; living cells vs control wells without A2E x100; A2E controls without molecule 39.7±3.7
Assign class by Cell survival: not lower than 50% means T; lower than 50% means F.

I'd appreciate it if you could say whether COc1cc(-c2[o+]c3cc(O)cc(O)c3cc2O)cc(O)c1O [Petunidin, petunidin] has Cell survival at least equal to 50%.
T

I'd appreciate it if you could say whether Oc1ccc(-c2ccc3c(O)cc(O)c(O)c3[o+]2)cc1O [Gossypetinidin, gossypetinidin] has Cell survival at least equal to 50%.
F

I'd appreciate it if you could say whether Oc1cc(O)c2cc(O)c(-c3ccc(O)c(O)c3)[o+]c2c1 [Cyanidin, cyanidin] has Cell survival at least equal to 50%.
T

* * *

System: primary cultures of retinal pigment epithelium (RPE) of adult pigs
Assay: In vitro assay of the photoprotective activity: phototoxicity induced by A2E and blue light, cell survival
Assay type: cell-based, pig
Conditions: 20 μM compound for 48 h, A2E 30 μM, blue light 470 nm 50 min, survival after 24 h; living cells vs control wells without A2E x100; A2E controls without molecule 39.7±3.7
propertyLabel: Cell survival
Note: state the figure and append the unit.

The examples below pair each entry with its known result.
compoundString: COc1cc(-c2[o+]c3cc(O)cc(O)c3cc2O)cc(OC)c1O.[Cl-]
Cell survival: 51.5 ± 6.9%
--
compoundString: Oc1ccc(-c2[o+]c3cc(O)c(O)c(O)c3cc2O)cc1O
Cell survival: 54.3 ± 6.6%
--
compoundString: Oc1ccc2cc(O)c(-c3ccc(O)c(O)c3)[o+]c2c1
Cell survival: 39.3 ± 3.2%

// below: Cell survival requested for another compound
The recorded Cell survival for entry `Oc1cc(O)c2cc(O)c(-c3cc(O)c(O)c(O)c3)[o+]c2c1` equals 57.8 ± 5.6%
